Target: T1, UNK ZnF1-3 (human, UniProt Q9C0B0 31-174)
T1 sequence: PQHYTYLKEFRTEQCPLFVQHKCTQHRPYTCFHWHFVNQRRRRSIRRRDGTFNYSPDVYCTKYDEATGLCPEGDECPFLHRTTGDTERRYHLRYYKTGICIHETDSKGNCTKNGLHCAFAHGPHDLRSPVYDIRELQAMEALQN
Experiment: nsRBNS (natural sequence RNA bind-n-seq); RBNS binding buffer (assumed for nsRBNS): 25 mM Tris pH 7.5, 150 mM KCl, 3 mM MgCl2, 0.01% Triton X-100, 500 ug/ml BSA, 20 U/ml SUPERase-In, 4 C; UNK is unkempt and MSI1 is Musashi-1; names of the RNAs are library labels; protein concentration not given here; high values mean tight binding
In all, about 24,000 sequences were measured (“enrichment r”: median about 0.99, highest 2% from about 3.7 on). This excerpt belongs to a sample that is enriched for the highest values.
property.label: binding signal (enrichment R)
Your answer is read as enrichment R, so omit the unit and give the number.

Reported binding signal, binder chr11:93987321:93987322:+_ENSMUSG00000020859_ENSMUST00000103168|mus_mus|motif|central (ssRNA) RNA: GGGAGUUCUACAGUCCGACGAUCUACAAAGUUACAUUCCGAACCCCAGGGAUUCCAUAAUAGAAAUAAAUACUGAAAUAACGGCAUUGCUAAAUGAGCUUUUUACGCAUAGAAAUGAAGCCGUGGCCUCUAAAGACAGCAAAUCAACAGAGGAUUGAGCAUCA : ____
1.35

Reported binding signal, binder chr5:61651017:61651018:+_ENSG00000068796_ENST00000381103|hu_hu|FALSE|FALSE (ssRNA) RNA: GGGAGUUCUACAGUCCGACGAUCCCUAUGUUCAUCAAUAGGAUCUGCUGUUGUUAAUGGUCUAUAAUCCAAACUUCCUCUAAAGUCUCUGAUCAUACACAUAAUUUCAUAAUUUGGGUUUGUAGCAUCAACGUCCUGGGCUCUCAACAGAGGAUUGAGCAUCA : ____
1.64

Reported binding signal, binder chr17:25041749:25041750:-_ENSMUSG00000024163_ENSMUST00000117509|mus_hu|FALSE|FALSE (ssRNA) RNA: GGGAGUUCUACAGUCCGACGAUCCGAGGGAUAGGGGCGCUUGGCCGGAGGGGGGCUGGAGGAAGAGCUGAAGAGGCGGCUGAAGAACUGCCAGAUGGUCGACUUCUUCUUCUCCUGGACGGAUGGGUGCUCUCGGGACGCUCUCAACAGAGGAUUGAGCAUCA : ____
1.43

Reported binding signal, binder chr7:130337358:130337359:+_ENSMUSG00000052707_ENSMUST00000094053|mus_mus|FALSE|FALSE (ssRNA) RNA: GGGAGUUCUACAGUCCGACGAUCACAAGAUUUUUUGACCGGGGAACUGGUUUCCUGAGAACCAUGCUCUUUGAUUUAGGACAGGAAUAGAAAACAGAAGAACAUGGCCAACUGCUGCUCUUUUCCCAGAGAUAGAAGCGUCUUCAACAGAGGAUUGAGCAUCA : ____
0.987

Reported binding signal, binder chr14:49642940:49642941:-_ENSMUSG00000061244_ENSMUST00000162175|mus_mus|FALSE|FALSE (ssRNA) RNA: GGGAGUUCUACAGUCCGACGAUCUAAAGCAUAAUCAAUAUGCUCAAUACAUAAAAAUUCCACAAGAAUGGUAAAAAUUCUAAAGGCAUUCCUUGGUAAAUCAGAAGGAUCAGAAAGCCUAUGACAUCUUUCAAAGGCUUGUUUCAACAGAGGAUUGAGCAUCA : ____
0.307

Reported binding signal, binder chr17:27717376:27717377:-_ENSMUSG00000024213_ENSMUST00000025050|mus_mus|FALSE|FALSE (ssRNA) RNA: GGGAGUUCUACAGUCCGACGAUCCACAGGACAGAUUUUUAGAAAGUUUCAUCGCACAUGGGUGUCUUUUAAUGAAAAAAAAAAAAAAAAUUCAGAGGAAAUAUCUGGCCAGGCCGGGACGAGACAAAUGGGAGUGCUUCGGAACAACAGAGGAUUGAGCAUCA : ____
4.44

Reported binding signal, binder chr16:28827448:28827449:-_ENSMUSG00000051065_ENSMUST00000100023|mus_hu|FALSE|FALSE (ssRNA) RNA: GGGAGUUCUACAGUCCGACGAUCAAAUAUCAGUAGUGGUGAAAGCUCAUAAGAAAAAAGACAAAAACAAAAUAAUAAAAAUAAUAGGAUAGAAUCGUUAAGCAUCAGAAAGAGAUUUGUUUCCCCAUACCCAUGAACAAAUUUCAACAGAGGAUUGAGCAUCA : ____
8.38

Reported binding signal, binder chr6:74304526:74304527:-_ENSG00000119899_ENST00000355773|hu_mus|motif|central (ssRNA) RNA: GGGAGUUCUACAGUCCGACGAUCCAAGUUUAUCAGUGUGUGUGUGUGUGUGUGUGUCCAUUUCAGCUUCAUUUCCGGUGCCCUUACCUUAUAUCAUACUGCCUUUCCUGCAGCCUGAUAUGUGAACCCAGUAUACGGCCUGGCCAACAGAGGAUUGAGCAUCA : ____
0.616

Reported binding signal, binder chr2:126475859:126475860:-_ENSMUSG00000027361_ENSMUST00000110424|mus_mus|FALSE|FALSE (ssRNA) RNA: GGGAGUUCUACAGUCCGACGAUCAGUUUCUGAAGAAUUGGACAAUGGGGCAGAAGCUUCAGCUAAGGCAGCUAACGUAGCUAAUACUGACGUAGAGGAGUUUCCAAACUGAACAGCAGAUACUCCUGUUUCAUCUGUGAGGUUCAACAGAGGAUUGAGCAUCA : ____
1.31

Reported binding signal, binder chr1:66485854:66485855:+_ENSMUSG00000015222_ENSMUST00000077355|mus_mus|FALSE|FALSE (ssRNA) RNA: GGGAGUUCUACAGUCCGACGAUCCCUUUCAGAAUGUAUUGGAUAGCCUUCAGGCACAUGAAAGGUAAAAAUGCAAUUUAAAAAAUAAUAAUAAUACUCCAUGCAAAACAGAGCAGAGCGAAAAUAAUUGUCCGAUUGUAUCCACAACAGAGGAUUGAGCAUCA : ____
5.46

Reported binding signal, binder 133975656_133975776_5164_3pUTR_ENSG00000205060_ENST00000378509|human|control|control (ssRNA) RNA: GGGAGUUCUACAGUCCGACGAUCCAUUUCUCUGUCCGUUUAGGUCAAUGCCAACUGGUCCACCAGUGAACAUGUCCACCGGCCCUGAGCUAACUCAUUGGUUUAUUAUUCCUGACCUAAGGUGUUUUACUUCCCCUCUCCAUACAACAGAGGAUUGAGCAUCA : ____
0.604

Reported binding signal, binder chr8:30550554:30550555:-_ENSG00000104687_ENST00000414019|hu_mus|FALSE|FALSE (ssRNA) RNA: GGGAGUUCUACAGUCCGACGAUCGCCGGCAUUCUCCAGUUCCUCGGUGCAGUUGGAACUGAUGAGUGAAUCAAAAUUUCUCAGUACCUUAUCAUGCCUGAUCAUAAGAGAUGUCUUGGAGCCCAGGGCAGAGAGGAUGCCCGCCAACAGAGGAUUGAGCAUCA : ____
1.28

Reported binding signal, binder chr9:109937893:109937894:+_ENSMUSG00000032479_ENSMUST00000165876|mus_mus|motif|central (ssRNA) RNA: GGGAGUUCUACAGUCCGACGAUCUUCACGUGGUUUUUCUUCAGUCUGUACAGUUCCUUUGUCUUUAAUUGGAACUGUUGCGGCUUUUGUUUCCAAGGGCAGUGCAAGAUCGGAGGCUGGAGCCAUGCUGUUGUCCACAAUCAGCAACAGAGGAUUGAGCAUCA : ____
0.462
